Consider the following binders and their measured percent blockade of GAL3-ITGb3 interaction readings.
- testedSystem: T1, Human GAL3 protein (TrueBinding, QCB200349 / QCB200352; R&D Systems, 8259-GA) (human, UniProt P17931 2-250)
- T1 construct: also called human galectin-3
- T1 sequence (P17931 2-250 limits assumed): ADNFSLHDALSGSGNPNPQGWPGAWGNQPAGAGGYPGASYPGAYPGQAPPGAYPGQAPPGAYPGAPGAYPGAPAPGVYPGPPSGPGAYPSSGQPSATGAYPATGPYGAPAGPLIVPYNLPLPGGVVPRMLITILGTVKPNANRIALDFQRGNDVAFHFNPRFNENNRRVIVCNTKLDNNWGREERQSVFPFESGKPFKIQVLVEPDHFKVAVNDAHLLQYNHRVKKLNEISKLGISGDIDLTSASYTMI
- protocolDescription: blocking ELISA (GAL3 coated; antibody + biotinylated ITGb3)

// below: answered binders
binder	recordedMeasurement
13A12.2E5 (antibody, V domains shown) VH: QIQLVQSGPELKKPGETVKISCKTSGYKFKTYVMSWVKQAPGKALKWMGWINTYSGVPTYADDFKGRFAFSLETSASTAYLEIINLKNEDTATYFCARDGNYGDPMDYWGQGTSVTVSS VL: DVVMTQTPLTLSVAIGQPASISCKSSQSLLYTNGKTYLNWLLQRPGQSPKRLIYLLSKLDSGVPDRFSASGSGTDFTLKISRVEAEDLGVYYCLQSTHFPLTFGAGTKLEMK	> 90%
IMT001 (TB001) (antibody, V domains shown, anti-Gal3 antibody; also called IMT001-4) VH: QVQLVQSGSELKKPGASVKVSCKASGYTFTNYGMNWVRQAPGQGLKWMGWINTNTGEPTYVEEFTGRFVFSLETSVSTAYLQISSLKAEDTAVYFCAPYDNFFAYWGQGTTVTVSS VL: DIVLTQSPLSLPVTPGEPASISCRSSKSLLYKDGKTYLNWFLQKPGQSPQLLIYLMSTHASGVPDRFSGSGSGTDFTLKISRVEAEDVGVYYCQQLVDYPLTFGGGTKLEIK	> 90%
20H5.A3 (antibody, V domains shown) VH: QIQLVQSGPELKKPGESVKISCKASGYAFTTYGMSWVQQAPGKGLKWMGWVNTYSGVPTCADDFKGRFAFSLETSASTAYLQINNLRNEDTATYFCARGPYAMDYWGQGTSVTVSS VL: DIQMTQTTSSLSASLGDRVTINCSASQDISNYLNWYQQKPDGTVKLLIYYTSSLLSGVPSRFSGSGSGTDYSLTISNLEPEDIATYFCQQYSKLPYTFGSGTHLEIK	> 90%

--- query ---
Tell me measured percent blockade of GAL3-ITGb3 interaction for F847C.11B1 (antibody, V domains shown, anti-Gal3 antibody; also called 847.11B1) VH: EVQLQQSGPELVKPGASVKISCKASGNTFTDHNMHWVKQSHGKSLEWIGYIYPYNGGTGYNQKFKSKATLTVDNSSSTVYMELRSLTSEDSAVYYCARGEYDYLAWFAYWGQGTLVTVSA VL: EIVLTQSPASLSVTTGEKVTIRCITSIDIDDDMNWYQQKPGEPPKLLISEGNTLRPGVPSRFSSSGYGTDFVFTIENTLSEDVADYYCLQSDNKPLTFGAGTKLELKR please. < 10%
